tested on: NCI-H322M lung; test: NCI-60 one-dose screen, 48 h (100 = growth as untreated, 0 = no growth, -100 = all killed); conditions: 10 µM unless noted
This is part of a sample that, as a whole, favours compounds with a hit. Of some 83,000 tested, about 20% had one in any assay.
quantity: growth (%)
State just the number; it will be interpreted in %.

(Q) Consider the compound `O=[N+]([O-])c1cnc(Sc2ccncn2)s1` and give its measured growth.
(A) 99.1

(Q) Queued: `COc1ccc(/C=C2\Oc3cc(OCCCN4CCCC4)ccc3C2=O)c(OC)c1`
(A) 94.6

(Q) Queued: `O=C(/C=C\c1cccc([N+](=O)[O-])c1)/C=C/c1cccc([N+](=O)[O-])c1`
(A) 98.2

(Q) Queued: `O=S(=O)(NCCNc1nccc(-c2c(-c3cccc(O)c3)nc3sccn23)n1)c1ccc(F)cc1`
(A) 90.4

(Q) Queued: `COc1ccccc1CNCCCN1C(=O)c2ccc3c4c(ccc(c24)C1=O)C(=O)N(CCCNCCCCNCCCN)C3=O`
(A) -4.96

(Q) Queued: `O=[N+]([O-])c1cccc(-c2nc3sccn3c2-c2ccnc(NCCCNS(=O)(=O)c3ccc(C(F)(F)F)cc3)n2)c1`
(A) 63.1

(Q) Queued: CCN(CC)CCC(CNc1ccnc2cc(Cl)ccc12)c1ccccc1 (centres undefined)
(A) 93.7

(Q) Queued: `CC(=O)Nc1nc(N)nc(NC(C)=O)c1N=O`
(A) 140

(Q) Queued: `c1cc(C2=N[C@@H]3c4ccccc4C[C@@H]3O2)nc(C2=N[C@@H]3c4ccccc4C[C@@H]3O2)c1`
(A) 107

(Q) Queued: C=C1CCC2C(C)(CO)C(O)CCC2(C)C1CC(NCc1ccccc1)C1=CCOC1=O (centres undefined)
(A) 103

(Q) Queued: `NC(=O)c1c(NC(=S)Nc2ccc(OC(F)(F)F)cc2)sc2c1CCC1(C2)OCCO1`
(A) 89.2

(Q) Queued: `C=C(C)[C@@H]1CC[C@]2(C(=O)O)CC[C@]3(C)[C@H](CC[C@@H]4[C@@]5(C)C[C@@H](CC#Cc6ccc(C(F)(F)F)cc6)[C@H](O)C(C)(C)[C@@H]5CC[C@]43C)[C@@H]12`
(A) 35.2

(Q) Queued: CCOC(=O)c1ccc(NC(=O)N2CC(C)OC(C)C2)cc1 (centres undefined)
(A) 111

(Q) Queued: CC12CCC3C4(C)COC(c5ccco5)OC4CCC3(C)C1CC(C1=CCOC1=O)O2 (centres undefined)
(A) 98.9

(Q) Queued: `O=S(=O)(NCCNc1nccc(-c2c(-c3ccc(O)cc3)nc3sccn23)n1)c1cccc2ccccc12`
(A) 98.1

(Q) Queued: O=C1C2(c3ccccc3)C(c3ccccc3)=C(c3ccccc3)C1(c1ccccc1)C1CC=CC12 (centres undefined)
(A) 84.7

(Q) Queued: `O=S(=O)(c1ccc(OCCO)cc1)c1ccc(OCCO)cc1`
(A) 91.8

(Q) Queued: `C=C[C@@H]1C[C@@H]2Cc3c(C)cc(C)cc3N1O2`
(A) 91.9

(Q) Queued: `CC(C)(C)n1cc(-c2ccnc(NCCCNS(=O)(=O)c3ccc(F)cc3)c2)c(-c2cccc(O)c2)n1`
(A) 60.5
